# Species on record: Rattus norvegicus
# TEST: Open TG-GATES - Regimen: Daily Repeat
# Type: toxicity, organism-based, Sprague-Dawley
# Parameters: regimen Daily Repeat, gender Male, age 6 weeks
# MEASUREMENT_CONDITIONS: in vivo, po, 1000 mg/kg, 72 h, tissue Blood, route gavage, dose level High, time 3 day
# Lookup of reported Eos keyed by entry
MEASUREMENT_TYPE: Eos (%)

MOLECULE	MEASUREMENT_TYPE	OBSERVED
O=C(O)c1ccccc1Nc1ccccc1	Eos	0.7
CC(S)C(=O)NCC(=O)O (centres undefined)	Eos	1.2
CC(=O)[C@@]1(O)CC[C@H]2[C@@H]3C=C(Cl)C4=CC(=O)CC[C@]4(C)[C@H]3CC[C@@]21C	Eos	1.2
CCCCNC(=O)NS(=O)(=O)c1ccc(C)cc1 [TOLBUTAMIDE]	Eos	1
